Tested on: P12-Ichikawa
Test: cell viability relative to DMSO control; higher = less cytotoxic
Conditions: RPMI 5 mM glucose + 10% dialyzed FBS; 48 h; 0.00702 µM
For each of the compounds below, state its cell viability.
Answers are plain numbers, in %.

Take a look at these entries with their results.
Quick one: cell viability for Cc1ncc([N+](=O)[O-])n1CC(C)O (centres undefined) ?
106

Quick one: cell viability for c1ccc(-c2oc3ncnc(NC[C@@H]4CCCO4)c3c2-c2ccccc2)cc1 ?
120

Quick one: cell viability for CCN1CCN(C(=O)Cc2ccc(Nc3ncc(F)c(Nc4ccc(C(=O)Nc5ccccc5Cl)cc4)n3)cc2)CC1 ?
112

Consider the additional compound presented here.
Quick one: cell viability for CCOC(=O)\C1=C\[C@@H](OC(CC)CC)[C@H](NC(C)=O)[C@@H](N)C1 ?
86.5

The reported measurements were obtained from the supplement of paper PMC11451515.
